# target_under_test: T1, his-tagged human PVRIG (h-PVRIG-his) recombinant protein (human, UniProt Q6DKI7 41-171, limits assumed)
# T1 construct: bought from Acrobiosystems; also called Human PVRIG-his; human PVRIG recombinant protein; not shown: his tag
# T1 sequence (looked up): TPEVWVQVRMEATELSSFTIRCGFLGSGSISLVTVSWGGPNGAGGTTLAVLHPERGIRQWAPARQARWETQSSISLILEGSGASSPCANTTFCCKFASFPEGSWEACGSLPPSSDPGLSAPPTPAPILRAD
# experiment_description: BLI (Fortebio), antibody on Protein A sensor, 1:1 fit
# Protocol: A Protein A biosensor (Fortebio, #18-5010) was immersed in 200 μL of KB buffer (PBS, pH 7.4, 0.02% tween-20, 0.1% BSA) for 60 s for the wetting treatment. Then, the anti-PVRIG antibody was diluted to 10 μg/mL with the KB buffer, and the sensor was immersed in 200 μL of the solution until the reading was 1.2 nm. […] The affinity of the humanized anti-PVRIG antibodies for human PVRIG was detected according to the method of Example 7. […]
I'd appreciate it if you could supply kon values for the items below.
A number alone suffices; assume M⁻¹ s⁻¹.

# input Tell us which kon value is on record for humanized anti-PVRIG antibody 39H4 (antibody, human IgG4 S228P, F234A L235A, V domains shown) VH: EVQLVESGGGLVQPGGSLRLSCAASGYTSRTDCMGWFRQAPGKGLEGVAHIDSDGIPRYVESVKGRFTISQDHAKNSLYLQMNSLRAEDTAVYYCVVGFKFGDYCAPNDWGQGTMVTVSS
# output 189000

# input Please list kon recorded for the binder humanized anti-PVRIG antibody 30H2 (antibody, human IgG4 S228P, F234A L235A, V domains shown) VH: EVQLVESGGGLVQPGGSLRLSCAASGFTFSGDCMGWFRQAPGKGLDEGVATIDNAGRIKYADSVKGRFTISRDNAKNSLYLQMNSLRAEDTAVYYCAAGWTFGGQCSPADWGQGTQVTVSS
# output 169000

# input Indicate the recorded kon value for this binder: humanized anti-PVRIG antibody 39H2 (antibody, human IgG4 S228P, F234A L235A, V domains shown) VH: EVQLVESGGGLVQPGGSLRLSCAASGFTSRTDCMGWFRQAPGKGLEGVAHIDSDGIPRYVESVKGRFTISRDNAKNSLYLQMNSLRAEDTAVYYCVVGFKFGDYCAPNDWGQGTMVTVSS
# output 180000

# input Return value of kon for input humanized anti-PVRIG antibody 30H3 (antibody, human IgG4 S228P, F234A L235A, V domains shown) VH: EVQLVESGGGLVQPGGSLRLSCAASGYSYSGDCMGWFRQAPGKGLDEGVATIDNAGRIKYADSVKGRFTISRDNAKNSLYLQMNSLRAEDTAVYYCAAGWTFGGQCSPADWGQGTQVTVSS , no commentary.
# output 148000

# input For humanized anti-PVRIG antibody 20H5 (antibody, human IgG4 S228P, F234A L235A, V domains shown) VH: EVQLVESGGGLVQPGGSLRLSCAASGYTSRTDCMGWFRQAPGKEHEGVAHIDSDGIPRYVDSVKGRFTISQDHAKNSLYLQMNSLRAEDTAVYYCVVGFKFDEDYCAPNDWGQGTMVTVSS , write its kon.
# output 193000

# input Fill in kon for record humanized anti-PVRIG antibody 151H7 (antibody, human IgG4 S228P, F234A L235A, V domains shown) VH: HVQLVESGGGLVQPGGSLRLSCVASASGFTYRPYCMAWFRQAPGKEREAVAGIDIFGGTTYADSVKGRFTASRDNAGFSLYLQMNSLRAEDTAVYYCAAGDSPDGRCPPLGQGLNYWGQGTMVTVSS
# output 157000

# input Given the binder humanized anti-PVRIG antibody 39H1 (antibody, human IgG4 S228P, F234A L235A, V domains shown) VH: EVQLVESGGGLVQPGGSLRLSCAASGFTFSTDCMGWFRQAPGKGLEGVAHIDSDGIPRYVESVKGRFTISRDNAKNSLYLQMNSLRAEDTAVYYCVVGFKFGDYCAPNDWGQGTMVTVSS , write its reported kon.
# output 264000
